# credit: ChEMBL document CHEMBL1275533

System: Pseudomonas sp.
ASSAY DETAILS: Antibacterial activity against non-gentamicin-resistant Pseudomonas spp. clinical isolate after 18 hrs by agar dilution method
Assay type: functional
ENDPOINT LABEL: MIC90 (µg/mL)
Express the result in µg/mL but write the number alone.

In: Form: Entry = CN[C@@H]1[C@@H](O)[C@@H](O[C@@H]2[C@@H](O)[C@H](O[C@@H]3OC(C(C)N)=CC[C@@H]3N)[C@@H](N)C[C@H]2N)OC[C@]1(C)O (some centres undefined) [VERDAMICIN] | System = Pseudomonas sp. | MIC90 = ____
Out: 8

In: Form: Entry = CCN[C@@H]1C[C@H](N)[C@@H](O[C@H]2OC(CN)=CC[C@H]2N)[C@H](O)[C@H]1O[C@H]1OC[C@](C)(O)[C@H](NC)[C@H]1O [NETILMICIN] | System = Pseudomonas sp. | MIC90 = ____
Out: 32

In: Form: Entry = NCC[C@H](O)C(=O)N[C@@H]1C[C@H](N)[C@@H](O[C@H]2O[C@H](CN)[C@@H](O)[C@H](O)[C@H]2O)[C@H](O)[C@H]1O[C@H]1O[C@H](CO)[C@@H](O)[C@H](N)[C@H]1O [AMIKACIN] | System = Pseudomonas sp. | MIC90 = ____
Out: 16

In: Form: Entry = CCN[C@@H]1C[C@H](N)[C@@H](O[C@@H]2OC(C(C)N)=CC[C@@H]2N)[C@H](O)[C@H]1O[C@H]1OC[C@](C)(O)[C@H](NC)[C@H]1O (some centres undefined) [VERTILMICIN] | System = Pseudomonas sp. | MIC90 = ____
Out: 16

----------
System: Haemophilus parainfluenzae
ASSAY DETAILS: Antibacterial activity against non-gentamicin-resistant Haemophilus parainfluenzae clinical isolate after 18 hrs by agar dilution method
Assay type: functional
ENDPOINT LABEL: MIC90 (µg/mL)
Express the result in µg/mL but write the number alone.

In: Field request: MIC90 | item: CCN[C@@H]1C[C@H](N)[C@@H](O[C@H]2OC(CN)=CC[C@H]2N)[C@H](O)[C@H]1O[C@H]1OC[C@](C)(O)[C@H](NC)[C@H]1O
Out: 2

In: Field request: MIC90 | item: CN[C@@H]1[C@@H](O)[C@@H](O[C@@H]2[C@@H](O)[C@H](O[C@@H]3OC(C(C)N)=CC[C@@H]3N)[C@@H](N)C[C@H]2N)OC[C@]1(C)O (some centres undefined)
Out: 2

In: Field request: MIC90 | item: NCC[C@H](O)C(=O)N[C@@H]1C[C@H](N)[C@@H](O[C@H]2O[C@H](CN)[C@@H](O)[C@H](O)[C@H]2O)[C@H](O)[C@H]1O[C@H]1O[C@H](CO)[C@@H](O)[C@H](N)[C@H]1O
Out: 8

In: Field request: MIC90 | item: CCN[C@@H]1C[C@H](N)[C@@H](O[C@@H]2OC(C(C)N)=CC[C@@H]2N)[C@H](O)[C@H]1O[C@H]1OC[C@](C)(O)[C@H](NC)[C@H]1O (some centres undefined)
Out: 2

----------
System: Proteus mirabilis
ASSAY DETAILS: Antibacterial activity against gentamicin-resistant Proteus mirabilis clinical isolate after 18 hrs by agar dilution method
Type: functional
ENDPOINT LABEL: MIC50 (µg/mL)
Express the result in µg/mL but write the number alone.

In: Field request: MIC50 | item: NCC[C@H](O)C(=O)N[C@@H]1C[C@H](N)[C@@H](O[C@H]2O[C@H](CN)[C@@H](O)[C@H](O)[C@H]2O)[C@H](O)[C@H]1O[C@H]1O[C@H](CO)[C@@H](O)[C@H](N)[C@H]1O
Out: 4

In: Field request: MIC50 | item: CCN[C@@H]1C[C@H](N)[C@@H](O[C@@H]2OC(C(C)N)=CC[C@@H]2N)[C@H](O)[C@H]1O[C@H]1OC[C@](C)(O)[C@H](NC)[C@H]1O (some centres undefined)
Out: 32

In: Field request: MIC50 | item: CCN[C@@H]1C[C@H](N)[C@@H](O[C@H]2OC(CN)=CC[C@H]2N)[C@H](O)[C@H]1O[C@H]1OC[C@](C)(O)[C@H](NC)[C@H]1O
Out: 16

----------
Give Activity for every item shown.
Tested on: Staphylococcus epidermidis
ASSAY DETAILS: Antibacterial activity against non-gentamicin-resistant Staphylococcus epidermidis clinical isolate assessed as susceptible isolates after 18 hrs by agar dilution method
Type: functional
Express the result in % but write the number alone.

In: Field request: Activity | item: CCN[C@@H]1C[C@H](N)[C@@H](O[C@@H]2OC(C(C)N)=CC[C@@H]2N)[C@H](O)[C@H]1O[C@H]1OC[C@](C)(O)[C@H](NC)[C@H]1O (some centres undefined)
Out: 100

In: Field request: Activity | item: CCN[C@@H]1C[C@H](N)[C@@H](O[C@H]2OC(CN)=CC[C@H]2N)[C@H](O)[C@H]1O[C@H]1OC[C@](C)(O)[C@H](NC)[C@H]1O
Out: 100

In: Field request: Activity | item: CN[C@@H]1[C@@H](O)[C@@H](O[C@@H]2[C@@H](O)[C@H](O[C@@H]3OC(C(C)N)=CC[C@@H]3N)[C@@H](N)C[C@H]2N)OC[C@]1(C)O (some centres undefined)
Out: 75

In: Field request: Activity | item: NCC[C@H](O)C(=O)N[C@@H]1C[C@H](N)[C@@H](O[C@H]2O[C@H](CN)[C@@H](O)[C@H](O)[C@H]2O)[C@H](O)[C@H]1O[C@H]1O[C@H](CO)[C@@H](O)[C@H](N)[C@H]1O
Out: 98.8

----------
System: Enterococcus faecalis
ASSAY DETAILS: Antibacterial activity against gentamicin-resistant Enterococcus faecalis clinical isolate after 18 hrs by agar dilution method
Assay type: functional
ENDPOINT LABEL: MIC50 (µg/mL)
Express the result in µg/mL but write the number alone.

In: Field request: MIC50 | item: CCN[C@@H]1C[C@H](N)[C@@H](O[C@H]2OC(CN)=CC[C@H]2N)[C@H](O)[C@H]1O[C@H]1OC[C@](C)(O)[C@H](NC)[C@H]1O
Out: 4

In: Field request: MIC50 | item: CCN[C@@H]1C[C@H](N)[C@@H](O[C@@H]2OC(C(C)N)=CC[C@@H]2N)[C@H](O)[C@H]1O[C@H]1OC[C@](C)(O)[C@H](NC)[C@H]1O (some centres undefined)
Out: 4

In: Field request: MIC50 | item: CN[C@@H]1[C@@H](O)[C@@H](O[C@@H]2[C@@H](O)[C@H](O[C@@H]3OC(C(C)N)=CC[C@@H]3N)[C@@H](N)C[C@H]2N)OC[C@]1(C)O (some centres undefined)
Out: 128

In: Field request: MIC50 | item: NCC[C@H](O)C(=O)N[C@@H]1C[C@H](N)[C@@H](O[C@H]2O[C@H](CN)[C@@H](O)[C@H](O)[C@H]2O)[C@H](O)[C@H]1O[C@H]1O[C@H](CO)[C@@H](O)[C@H](N)[C@H]1O
Out: 128

----------
Tested on: Serratia marcescens
ASSAY DETAILS: Antibacterial activity against gentamicin-resistant Serratia marcescens clinical isolate assessed as susceptible isolates after 18 hrs by agar dilution method
Format: functional
ENDPOINT LABEL: Activity (%)
Express the result in % but write the number alone.

In: Field request: Activity | item: CN[C@@H]1[C@@H](O)[C@@H](O[C@@H]2[C@@H](O)[C@H](O[C@@H]3OC(C(C)N)=CC[C@@H]3N)[C@@H](N)C[C@H]2N)OC[C@]1(C)O (some centres undefined) [VERDAMICIN]
Out: 10

In: Field request: Activity | item: CCN[C@@H]1C[C@H](N)[C@@H](O[C@@H]2OC(C(C)N)=CC[C@@H]2N)[C@H](O)[C@H]1O[C@H]1OC[C@](C)(O)[C@H](NC)[C@H]1O (some centres undefined) [VERTILMICIN]
Out: 10

In: Field request: Activity | item: CCN[C@@H]1C[C@H](N)[C@@H](O[C@H]2OC(CN)=CC[C@H]2N)[C@H](O)[C@H]1O[C@H]1OC[C@](C)(O)[C@H](NC)[C@H]1O [NETILMICIN]
Out: 10

In: Field request: Activity | item: NCC[C@H](O)C(=O)N[C@@H]1C[C@H](N)[C@@H](O[C@H]2O[C@H](CN)[C@@H](O)[C@H](O)[C@H]2O)[C@H](O)[C@H]1O[C@H]1O[C@H](CO)[C@@H](O)[C@H](N)[C@H]1O [AMIKACIN]
Out: 30

----------
Give MIC50 for every item shown.
System: Escherichia coli
ASSAY DETAILS: Antibacterial activity against non-gentamicin-resistant Escherichia coli clinical isolate after 18 hrs by agar dilution method
Format: functional
Express the result in µg/mL but write the number alone.

In: Field request: MIC50 | item: NCC[C@H](O)C(=O)N[C@@H]1C[C@H](N)[C@@H](O[C@H]2O[C@H](CN)[C@@H](O)[C@H](O)[C@H]2O)[C@H](O)[C@H]1O[C@H]1O[C@H](CO)[C@@H](O)[C@H](N)[C@H]1O
Out: 1

In: Field request: MIC50 | item: CN[C@@H]1[C@@H](O)[C@@H](O[C@@H]2[C@@H](O)[C@H](O[C@@H]3OC(C(C)N)=CC[C@@H]3N)[C@@H](N)C[C@H]2N)OC[C@]1(C)O (some centres undefined)
Out: 0.5

In: Field request: MIC50 | item: CCN[C@@H]1C[C@H](N)[C@@H](O[C@H]2OC(CN)=CC[C@H]2N)[C@H](O)[C@H]1O[C@H]1OC[C@](C)(O)[C@H](NC)[C@H]1O
Out: 0.5

In: Field request: MIC50 | item: CCN[C@@H]1C[C@H](N)[C@@H](O[C@@H]2OC(C(C)N)=CC[C@@H]2N)[C@H](O)[C@H]1O[C@H]1OC[C@](C)(O)[C@H](NC)[C@H]1O (some centres undefined)
Out: 0.5
